TESTED TARGET: UniProt P00748
Sequence (P00748 20-372 limits assumed): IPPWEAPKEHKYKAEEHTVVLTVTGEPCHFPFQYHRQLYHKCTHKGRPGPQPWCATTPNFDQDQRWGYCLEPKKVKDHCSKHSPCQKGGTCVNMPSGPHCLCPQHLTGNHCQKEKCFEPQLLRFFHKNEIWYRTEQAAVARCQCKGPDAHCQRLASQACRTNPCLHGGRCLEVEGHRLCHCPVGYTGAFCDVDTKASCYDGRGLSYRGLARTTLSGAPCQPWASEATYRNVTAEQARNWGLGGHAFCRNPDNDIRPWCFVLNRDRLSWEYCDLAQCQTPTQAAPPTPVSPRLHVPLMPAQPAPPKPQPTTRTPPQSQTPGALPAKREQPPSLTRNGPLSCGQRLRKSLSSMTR
Sequence (P00748 373-615 limits assumed): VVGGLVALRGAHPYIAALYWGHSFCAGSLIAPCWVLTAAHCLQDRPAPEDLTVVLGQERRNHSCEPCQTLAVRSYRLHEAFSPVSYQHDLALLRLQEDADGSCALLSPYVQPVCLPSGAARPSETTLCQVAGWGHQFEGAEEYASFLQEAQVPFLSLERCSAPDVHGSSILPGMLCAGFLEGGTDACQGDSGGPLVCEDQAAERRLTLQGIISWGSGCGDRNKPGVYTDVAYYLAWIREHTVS
ASSAY PROTOCOL: FXIIa inhibitor potency, concentration-response, biochemical (AID 716)
pIC50: −log10 of the molar value.

[
  {
    "COMPOUND": "CC(C)C1c2c(-c3cccs3)n[nH]c2OC(=N)C1C#N (stereo unspecified) [SMR000014022]",
    "TESTED TARGET": "UniProt P00748",
    "pIC50": "< 4.30"
  }
]
